Target: RORγt (Mus musculus, UniProt P51450, T352K)
Sequence (P51450 with tags, fused parts or gaps T352K): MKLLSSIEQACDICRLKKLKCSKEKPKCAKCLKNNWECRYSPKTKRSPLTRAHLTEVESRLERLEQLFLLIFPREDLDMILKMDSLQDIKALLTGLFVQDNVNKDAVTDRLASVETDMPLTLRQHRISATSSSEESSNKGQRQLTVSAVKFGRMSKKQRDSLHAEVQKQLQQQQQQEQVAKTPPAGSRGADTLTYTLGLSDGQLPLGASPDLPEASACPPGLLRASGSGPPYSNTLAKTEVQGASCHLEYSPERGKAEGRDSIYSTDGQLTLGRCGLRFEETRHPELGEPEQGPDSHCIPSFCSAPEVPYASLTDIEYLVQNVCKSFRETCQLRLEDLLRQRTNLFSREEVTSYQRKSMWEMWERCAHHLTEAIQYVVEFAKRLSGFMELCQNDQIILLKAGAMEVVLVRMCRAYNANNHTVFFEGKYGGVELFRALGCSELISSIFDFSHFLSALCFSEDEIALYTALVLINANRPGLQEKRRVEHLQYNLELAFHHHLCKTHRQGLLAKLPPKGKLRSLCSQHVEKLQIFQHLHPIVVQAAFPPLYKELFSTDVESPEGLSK
Experiment: RORγt S2 cell Gal4-luciferase reporter assay
Conditions: IC50(μM), Drosophila S2 cells, Gal4-RORγt luciferase reporter, 20 hr
For each of the molecules below, state its IC50.

Please state, for each entry, its recorded IC50.
1. Cc1cccc(O)c1C(CC(=O)N1CCCC(C)C1)c1ccc2c(c1)OCO2 (centres unmarked) [Compound 126]
2. COc1cc(O)c(C(CC(=O)N2CC(C)CC(C)C2)c2ccc(O)cc2)c(OC)c1 (centres unmarked) [Compound 75]

1. 11 to 50 µM
2. 1 to 10 µM

Please state, for each entry, its recorded IC50.
1. COc1cc(O)c(C(CC(=O)N2CCCC(C)C2)c2ccccc2)c(OC)c1 (centres unmarked) [Compound 61]
2. CC1CCCN(C(=O)CC(c2ccc3c(c2)OCO3)c2ccc(O)cc2O)C1 (centres unmarked) [Compound 122]

1 to 10 µM
> 50 µM

Please state, for each entry, its recorded IC50.
1. COc1cc(OC)c(C(CC(=O)N2CC(C)CC(C)C2)c2ccc3c(c2)OCO3)c(OCC#N)c1 (centres unmarked) [Compound 136]
2. C#CCOc1cc(OC)cc(OC)c1C(CC(=O)N1CCCC(C)C1)c1ccc2c(c1)OCO2 (centres unmarked) [Compound 123]
3. COc1cc(O)c(C(CC(=O)N2CCCC(C)C2)c2ccc3ccccc3c2)c(OC)c1 (centres unmarked) [Compound 65]
4. COc1cc(O)c(C(CC(=O)N2CC(C)CC(C)C2)c2ccccc2Cl)c(OC)c1 (centres unmarked) [Compound 103]
5. COc1cc(OC)c(C(CC(=O)N2CC(C)CC(C)C2)c2ccc3c(c2)OCO3)c(OC)c1 (centres unmarked) [Compound 134]
6. COc1cc(O)c(C(CC(=O)N2CC(C)CC(C)C2)c2cccc(OCc3ccccc3)c2)c(OC)c1 (centres unmarked) [Compound 91]
7. COc1ccc(C(CC(=O)Nc2ccc(F)cc2)c2ccccc2)cc1 (centres unmarked) [Compound 46]

["1 to 10 µM", "1 to 10 µM", "1 to 10 µM", "1 to 10 µM", "1 to 10 µM", "1 to 10 µM", "> 50 µM"]

Please state, for each entry, its recorded IC50.
1. CC1CCCN(C(=O)CC(c2ccc3c(c2)OCO3)c2c(O)cccc2Cl)C1 (centres unmarked) [Compound 127]
2. CCCN(C(=O)C(C)(C)C(c1ccccc1)c1c(OC)cc(OC)cc1OC)C1CCCC(C)C1 (centres unmarked) [Compound 155]
3. CC1CCCN(C(=O)CC(c2ccccc2)c2ccccc2O)C1 (centres unmarked) [Compound 54]
4. Cc1ccc(O)c(C(CC(=O)NC2CCCCC2)c2ccccc2)c1 (centres unmarked) [Compound 47]
5. CCN(CC)C(=O)CC(c1ccc2c(c1)OCO2)c1c(O)cc(OC)cc1OC (centres unmarked) [Compound 39]
6. COc1ccc(C)c(O)c1C(CC(=O)N1CCCC(C)C1)c1ccc2c(c1)OCO2 (centres unmarked) [Compound 130]

11 to 50 µM
> 50 µM
> 50 µM
> 50 µM
11 to 50 µM
11 to 50 µM
